Parameter: TGI. Scope: all listed entries.
- Test system: U251 CNS
- testProtocol: NCI tumour cell line growth inhibition, 48 h
Where a SMILES comes first, the peptide text is derived from it.
measuredAttribute: TGI

1) CCOC(=O)CC(=O)NC1CC2CCC1(C)C2(C)C (stereo unspecified)	> 100 µM
2) S=c1[nH]nc(COc2ccc3c(c2)CCCC3)n1/N=C/c1ccc(Cl)cc1	34.6 µM
3) CCN(CC)CCn1c(C(C)(C)C)nc2ccccc21	> 100 µM
4) CCN(CC)C(=S)SS(=O)(=O)c1ccccc1C(=O)O	> 100 µM
5) Cc1ccccc1NC(=O)NC(Oc1ccccc1)(C(F)(F)F)C(F)(F)F	> 100 µM
6) CCc1ccc(-c2nnc(COc3ccc(-c4nc5ccc(C)cc5[nH]4)cc3OC)o2)cc1	5.79 µM
7) O=C1c2ccccc2-c2c1c1ccccc1c(=O)n2Cc1ccco1	> 100 µM
8) CC1NC(=O)CNC(=O)CNC(=O)C(Cc2ccc(O)cc2)NC(=O)C(C(C)C)NC(=O)C(C)NC1=O (stereo unspecified) (cyclo(GGAAVY); configuration not given here)	> 100 µM
9) CSc1ccc2c(cc1=O)[C@@H](NC(C)=O)CCc1cc(O)c(O)c(O)c1-2	45.3 µM
10) O=C1OC(c2ccco2)=N/C1=C\c1ccc(Cl)c(Cl)c1	> 100 µM
11) OC1(c2ccccc2)CC2CCC(C1)N2CCc1ccccc1 (stereo unspecified)	> 100 µM
12) CS(=O)(=O)c1ccc(Oc2cc(F)cc(C#N)c2)c2c1[C@H](O)[C@H](F)[C@@H]2F	> 100 µM
13) CCOC(=O)c1cc2cc(N(C(C)=O)C(C)=O)ccc2s1	59.6 µM
14) O=C(Cn1c(=O)ccn(C2OC(CO)C(O)C2F)c1=O)c1ccc(F)cc1 (stereo unspecified)	> 100 µM
15) CCOC(=O)c1nc2cc(N3CCOCC3)c(F)cc2[nH]c1=O	> 100 µM
16) CCOP(=O)(OCC)C(NC(=O)OCC(Cl)(Cl)Cl)n1nnc(C(=O)OC)c1C(=O)OC (stereo unspecified)	> 100 µM
17) Brc1cccc(/C=C/CN2CCN(CCOC(c3ccccc3)c3ccccc3)CC2)c1	27.5 µM
18) CC(=O)/C(C=Nc1c(C)n(C)n(-c2ccccc2)c1=O)=C(/C)O	> 100 µM
19) Cc1ccc(NC(c2ccccc2)c2ccc3cccnc3c2O)cc1 (stereo unspecified)	10.9 µM
20) COC(CN(C)C(=O)C(C)NC(=O)c1ccccc1)OC (stereo unspecified)	> 100 µM
21) CC(C)C[C@H](NC(=O)[C@H](Cc1ccccc1)n1ccc(N2CCCCC2)cc1=O)B(O)O	> 100 µM
